All figures here come from PubChem BioAssay.

Listing of entries alongside the reported response.
# measuredTarget: Beta-2 adrenergic receptor (Homo sapiens) (UniProt P07550)
# Sequence (P07550 whole entry, looked up): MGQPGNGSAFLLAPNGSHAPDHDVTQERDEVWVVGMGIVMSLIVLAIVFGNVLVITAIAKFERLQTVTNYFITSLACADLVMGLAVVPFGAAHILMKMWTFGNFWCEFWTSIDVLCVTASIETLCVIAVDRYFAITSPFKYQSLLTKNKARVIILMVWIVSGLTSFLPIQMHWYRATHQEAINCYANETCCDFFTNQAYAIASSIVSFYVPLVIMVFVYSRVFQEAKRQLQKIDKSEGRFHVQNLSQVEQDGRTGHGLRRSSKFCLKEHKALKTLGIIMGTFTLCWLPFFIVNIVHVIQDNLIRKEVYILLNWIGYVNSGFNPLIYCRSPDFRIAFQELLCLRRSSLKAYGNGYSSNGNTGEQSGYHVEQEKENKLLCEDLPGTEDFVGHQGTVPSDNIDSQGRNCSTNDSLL
# procedureSummary: agonist-induced loss of surface beta2AR – cell-based, FAP fluorogen, flow cytometry, validation set, pilot screen (AID 504459);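 further: agonist-driven loss of surface beta2AR via internalization measured by FAP dye flow cytometry; reference of the scale not given here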
# setupConditions: Am2.2-beta2AR cells, at 10 µM, hits give high values

- compound: "CCCCCC#CCC#CCC#CCC#CCCCC(=O)O"
  response (%): -11.7
- compound: "CC(C)C(=O)Nc1c(O)c2ccccc2[nH]c1=O"
  response (%): 7.52
- compound: "COc1ccc(C(=O)Nc2ncc3c(n2)CC(C)CC3=O)cc1 (stereo not drawn)"
  response (%): 2.81
- compound: "Cc1cc(Cl)cc2c1NC(=O)[C@]21[C@@H]2C(=O)N(Cc3ccccc3)C(=O)[C@@H]2[C@@H]2CCCN21"
  response (%): -4.55
- compound: "O=Cc1ccccc1Oc1ccccc1"
  response (%): -1.17
- compound: "COc1cc2nc(-c3ccccc3)nc(N3CCCC3)c2cc1OC"
  response (%): -10
- compound: "O=C1ON=C(c2ccc(Cl)cc2)/C1=C/c1ccc(O)cc1"
  response (%): 33.5
- compound: "NC(CO)C(=O)NNCc1ccc(O)c(O)c1O (stereo not drawn)"
  response (%): 8.54
- compound: "COc1ccc(N2CCN(C(=S)NCc3ccccc3)CC2)cc1"
  response (%): -3.32
- compound: "Cc1ccc2nc(NC3=NC(CC(=O)O)C(=O)N3)nc(C)c2c1 (stereo not drawn)"
  response (%): -2.27
- compound: "NC(N)=NC(N)=NCCc1ccccc1"
  response (%): -4.33
- compound: "O=C(O)c1ccc(-c2ccc(O)c(F)c2)cc1"
  response (%): -5.66
- compound: "OC12CCCCC1C(c1ccc3c(c1)OCO3)N(Cc1cccc(F)c1)CC2 (stereo not drawn)"
  response (%): -6.32
- compound: "Cc1cccc(-n2c(Cc3ccccc3)n[nH]c2=S)c1"
  response (%): -0.19
- compound: "CC1(C)CC(CNCCC(c2ccc(F)cc2)c2ccco2)CCO1 (stereo not drawn)"
  response (%): 4.87
- compound: "CC1(C)CC(=O)c2cnc(NC(=O)C3CCCC3)nc2C1"
  response (%): -15.9
- compound: "OCCOCCN1CCN(C(c2ccccc2)c2ccc(Cl)cc2)CC1 (stereo not drawn)"
  response (%): 3.36
- compound: "CCC(=O)O[C@]1(C(=O)CCl)[C@@H](C)C[C@H]2[C@@H]3CCC4=CC(=O)C=C[C@]4(C)[C@@]3(F)[C@@H](O)C[C@@]21C"
  response (%): 11.3
